For each record, write down the corresponding koff.
Molecular target: T1, EGFR extracellular domain (with an amino acid sequence of 25-645) (human, UniProt P00533 25-645)
T1 construct: range 25-645; Coupled on a CM5 chip; also called epidermal growth factor receptor extracellular domain; ligand (on the chip)
Assay: SPR, Biacore T200; EGFR extracellular domain on CM5 chip, rLZ-8 protein as analyte

Some binders with known koff results, for comparison:
rLZ-8 (L17K) (other, Surface potential mutant of rLZ-8) MSDTALIFRLAWDVKKKSFDYTPNWGRGNPNNFIDTVTFPKVLTDKAYTYRVAVSGRNLGVKPSYAVESDGSQKVNFLEYNSGYGIADTNTIQVFVVDPDTNNDFIIAQWN :: 7.56e-05 s⁻¹
rLZ-8 (S18A) (other, Alanine mutant of rLZ-8) MSDTALIFRLAWDVKKLAFDYTPNWGRGNPNNFIDTVTFPKVLTDKAYTYRVAVSGRNLGVKPSYAVESDGSQKVNFLEYNSGYGIADTNTIQVFVVDPDTNNDFIIAQWN :: 0.00182 s⁻¹

Required: koff, one value per binder below.
1. rLZ-8 (K46E/K74E) (other, Mutant of rLZ-8) MSDTALIFRLAWDVKKLSFDYTPNWGRGNPNNFIDTVTFPKVLTDEAYTYRVAVSGRNLGVKPSYAVESDGSQEVNFLEYNSGYGIADTNTIQVFVVDPDTNNDFIIAQWN
2. rLZ-8 (D45A) (other, Alanine mutant of rLZ-8) MSDTALIFRLAWDVKKLSFDYTPNWGRGNPNNFIDTVTFPKVLTAKAYTYRVAVSGRNLGVKPSYAVESDGSQKVNFLEYNSGYGIADTNTIQVFVVDPDTNNDFIIAQWN
3. rLZ-8 (D20H) (other, Surface potential mutant of rLZ-8) MSDTALIFRLAWDVKKLSFHYTPNWGRGNPNNFIDTVTFPKVLTDKAYTYRVAVSGRNLGVKPSYAVESDGSQKVNFLEYNSGYGIADTNTIQVFVVDPDTNNDFIIAQWN
4. rLZ-8 (R9A) (other, Alanine mutant of rLZ-8) MSDTALIFALAWDVKKLSFDYTPNWGRGNPNNFIDTVTFPKVLTDKAYTYRVAVSGRNLGVKPSYAVESDGSQKVNFLEYNSGYGIADTNTIQVFVVDPDTNNDFIIAQWN
5. rLZ-8 (K41D/K46E/K74E) (other, Mutant of rLZ-8) MSDTALIFRLAWDVKKLSFDYTPNWGRGNPNNFIDTVTFPDVLTDEAYTYRVAVSGRNLGVKPSYAVESDGSQEVNFLEYNSGYGIADTNTIQVFVVDPDTNNDFIIAQWN
6. rLZ-8 (K16A/K41A) (other, Alanine mutant of rLZ-8) MSDTALIFRLAWDVKALSFDYTPNWGRGNPNNFIDTVTFPAVLTDKAYTYRVAVSGRNLGVKPSYAVESDGSQKVNFLEYNSGYGIADTNTIQVFVVDPDTNNDFIIAQWN

1: 0.000614 s⁻¹; 2: 0.000743 s⁻¹; 3: 0.000432 s⁻¹; 4: 0.000528 s⁻¹; 5: 0.000431 s⁻¹; 6: 0.000273 s⁻¹
